System: SR leukemia
Experiment description: NCI tumour cell line growth inhibition, 48 h; in the data active means GI50 below about 0.43 µM; inactive means the rest
Respond only with the outcome that fits, drawn from label 1 (active), label 0 (inactive)

# count of solved cases: 3
[
  {
    "Molecule": "Cc1ccc(CNc2ccc(Cl)cc2NCc2ccc(C)c(O)c2)cc1O",
    "Target under test": "SR leukemia",
    "Assigned class": "label 0"
  },
  {
    "Molecule": "COc1cccc(-c2cc(-c3ccc(Nc4nc(Nc5ccc(Cl)cc5)nc(Nc5ccc(Cl)cc5)n4)cc3)nc(N)c2C#N)c1",
    "Target under test": "SR leukemia",
    "Assigned class": "label 0"
  },
  {
    "Molecule": "O=C1Nc2ccc(I)cc2/C1=C/c1cc(Br)c(O)c(Br)c1",
    "Target under test": "SR leukemia",
    "Assigned class": "label 0"
  }
]

Prompt: Could you check what this test reported for `N#CCC1CCN(c2nc(Nc3ccc(N4CCC(O)CC4)cc3)c3c(=O)[nH]ncc3n2)CC1` ?
Completion: label 1

Prompt: Could you check what this test reported for `CCn1nc(C#Cc2c(C)ccc3c(Nc4ccc(Cl)cc4)nccc23)c2c(N)ncnc21` ?
Completion: label 0

Prompt: Could you check what this test reported for `COc1ccc(-c2cc(-c3ccc(Cl)cc3)c(C#N)c(=O)n2CCCCCC(=O)Nc2ccccc2N)cc1` ?
Completion: label 0

Prompt: Could you check what this test reported for N/C(=N\O)c1cn(C2OC(CO)C(O)C2O)c2ncnc(N)c12 (stereo not given) ?
Completion: label 1

###

Test system: SNB-19 CNS
Experiment description: NCI tumour cell line growth inhibition, 48 h; in the data active = GI50 below about 0.43 µM; inactive = the rest
Respond only with the outcome that fits, drawn from active, inactive

Prompt: Could you check what this test reported for `N#CSc1c[nH]c2cccc(/C=C/C(=O)/C=C(O)/C=C/c3cccc4[nH]cc(SC#N)c34)c12` ?
Completion: inactive

Prompt: Could you check what this test reported for `O=C(CNC(=O)c1cccc2ccccc12)Nc1ccccc1Oc1ccc(O)cc1` ?
Completion: inactive

Prompt: Could you check what this test reported for `CC(=O)Nc1ccc(/C=C/C(=O)c2sc(-n3nc(-c4ccccc4)cc3-c3ccccc3)nc2C)cc1` ?
Completion: inactive

Prompt: Could you check what this test reported for `COc1cc(/C=C2\C(=O)Nc3ccc(O)cc32)cc(OC)c1OC` ?
Completion: inactive

Prompt: Could you check what this test reported for `Fc1cnccc1-c1nc2ccc3[nH]ncc3c2c2c1CCCC2` ?
Completion: inactive

Prompt: Could you check what this test reported for `CC(C)c1c(C(=O)Nc2ccccc2)c(-c2ccccc2)c(-c2ccc(F)cc2)n1CC[C@@H](O)C[C@@H](O)CC(=O)O` ?
Completion: inactive

Prompt: Could you check what this test reported for Cc1ccccc1C1N=C2Oc3ccccc3C=C2C(=O)N1 (stereo not given) ?
Completion: inactive

Prompt: Could you check what this test reported for `COc1cnc2c(c1)C(=O)c1c-2n(CCCN2CCNCC2)c(=O)c2cc(F)ccc12` ?
Completion: active

###

System: NCI-H226 lung
Experiment description: NCI tumour cell line growth inhibition, 48 h; in the data active means GI50 below about 0.43 µM; inactive means the rest
Respond only with the outcome that fits, drawn from active, inactive

# count of solved cases: 3
[
  {
    "Compound": "CCCN1CCCC(c2ccc(Nc3nc(Nc4cc(F)ccc4C(N)=O)c4cc[nH]c4n3)c(OC)c2)C1 (stereo unspecified)",
    "Assigned class": "inactive"
  },
  {
    "Compound": "COC(=O)[C@@H](C)C[C@H](Cc1ccccc1)NC(=O)c1nc([C@@H](C[C@H](C(C)C)N(C)C(=O)[C@@H](NC(=O)[C@H]2CC(=O)CCN2C)C(C)C)OC(C)=O)sc1C(C)C",
    "Assigned class": "active"
  },
  {
    "Compound": "Nc1nc(-c2ccccn2)c(-c2ccc3ncccc3n2)s1",
    "Assigned class": "inactive"
  }
]

# ---- query compound ----
Prompt: Could you check what this test reported for `COc1ncc(-c2ccc3nc(N)n(-c4ccccc4C(F)(F)F)c(=O)c3c2)cc1S(=O)(=O)Nc1ccc(F)cc1F` ?
Completion: inactive

###

Test system: HS 578T breast
Experiment description: NCI tumour cell line growth inhibition, 48 h; in the data active = GI50 below about 0.43 µM; inactive = the rest
Respond only with the outcome that fits, drawn from active, inactive

[
  {
    "Compound": "Cc1n[nH]c(C)c1-c1c(C)n[nH]c1C",
    "Assigned class": "inactive"
  }
]

Prompt: Could you check what this test reported for `COc1ncc(-c2ccc3nc(N)n(-c4ccccc4C(F)(F)F)c(=O)c3c2)cc1S(=O)(=O)Nc1ccc(F)cc1F` ?
Completion: inactive

Prompt: Could you check what this test reported for CC1SC(c2ccc(OCc3ccccc3)cc2)N(NC(=O)C(O)(c2ccccc2)c2ccccc2)C1=O (centres undefined) ?
Completion: inactive

Prompt: Could you check what this test reported for `COc1cc2nc(NC3CCC3)nc(NC3CCN(C(C)C)CC3)c2cc1OC` ?
Completion: inactive

Prompt: Could you check what this test reported for `O=C(CNC(=O)c1cccc2ccccc12)Nc1ccccc1Oc1ccc(O)cc1` ?
Completion: inactive

###

Test system: HOP-92 NSCLC
Experiment description: NCI tumour cell line growth inhibition, 48 h
Would you please tag the item True when its TGI is 8 µM or above, and False when it is below?

# count of solved cases: 3
[
  {
    "Compound": "O=C(c1ccco1)c1c(C(F)(F)F)n([O-])c2cc(Cl)c(Cl)cc2[n+]1=O",
    "Assigned class": "False"
  },
  {
    "Compound": "c1c[nH]c(CN2CCN(Cc3ncc[nH]3)CC2)n1",
    "Assigned class": "True"
  },
  {
    "Compound": "CC(C)=CCN1c2ccccc2[C@@]2(CC=C(C)C)CCN(C)[C@@H]12",
    "Assigned class": "True"
  }
]

Prompt: State whether the measured TGI reaches 8 µM, counting equality as reaching it, for `CCOC(=O)c1cn2c(n1)sc1cc([N+](=O)[O-])ccc12`
Completion: True

Prompt: State whether the measured TGI reaches 8 µM, counting equality as reaching it, for CC(=O)Nc1ccc(S(=O)(=O)N2C(=O)CCC2C(=O)Nc2ccccc2)cc1 (stereo not given)
Completion: False

Prompt: State whether the measured TGI reaches 8 µM, counting equality as reaching it, for `C/C(=C/C(=O)N(C)c1ccccc1Cl)O[Si](C(C)C)(C(C)C)C(C)C`
Completion: True

Prompt: State whether the measured TGI reaches 8 µM, counting equality as reaching it, for `CSc1cnc2ccccc2c1Sc1cn(C)c2ccccc2c1=O`
Completion: True

Prompt: State whether the measured TGI reaches 8 µM, counting equality as reaching it, for `CCn1nc(C#Cc2c(C)ccc3c(Nc4ccc(Cl)cc4)nccc23)c2c(N)ncnc21`
Completion: True

Prompt: State whether the measured TGI reaches 8 µM, counting equality as reaching it, for `CC(=O)O[C@H]1CC[C@@]2(C)C(=CC[C@@H]3[C@@H]2CC[C@]2(C)C(=O)/C(=C\c4ccccc4)C[C@@H]32)C1`
Completion: True

###

System: RXF 393 renal
Experiment description: NCI tumour cell line growth inhibition, 48 h
Recorded endpoint: log10 of TGI (log10 of the value in µM)
Each number you see is log10 of TGI, and the unit inside the log is µM.

[
  {
    "Molecule": "COc1cccc(-c2cc(-c3ccc(Nc4nc(Nc5ccc(Cl)cc5)nc(Nc5ccc(Cl)cc5)n4)cc3)nc(N)c2C#N)c1",
    "Data value": 0.57
  },
  {
    "Molecule": "N=C(N)c1ccc(-c2ccc(-c3cccs3)s2)cc1F",
    "Data value": 0.42
  },
  {
    "Molecule": "CC(C)CCNC(=O)c1ccc(CNC(=O)/C=C/c2ccc3c(c2)-c2ccccc2C3)cc1",
    "Data value": 1.92
  }
]

Prompt: # return recorded log10 of TGI for entry `Cc1ccc(CNc2ccc(Cl)cc2NCc2ccc(C)c(O)c2)cc1O`
Completion: 1.16

Prompt: # return recorded log10 of TGI for entry `N#CSc1c[nH]c2cccc(/C=C/C(=O)/C=C(O)/C=C/c3cccc4[nH]cc(SC#N)c34)c12`
Completion: 0.00

Prompt: # return recorded log10 of TGI for entry `O=C(NC(=Nc1ccccc1)SCCSC(=Nc1ccccc1)NC(=O)c1ccccc1)c1ccccc1`
Completion: 1.98

Prompt: # return recorded log10 of TGI for entry `Cc1c(S(=O)(=O)/N=C(\NO)Nc2ccc(Cl)cc2)sc2ccc(Cl)cc12`
Completion: 1.67

###

// reported TGI per item
Test system: LOX IMVI melanoma
Experiment description: NCI tumour cell line growth inhibition, 48 h
Hi! Could you send only the number? It should be in µM, unit omitted.

Prompt: # return recorded TGI for entry `CCN(CC)c1ccc(C=C2C(=O)NC(=S)NC2=O)cc1`
Completion: 4.57

Prompt: # return recorded TGI for entry `O=C1C/C(=C\c2ccccc2)C(=O)c2ccccc2N1`
Completion: 40.8

###

// reported TGI per item
Test system: M14 melanoma
Experiment description: NCI tumour cell line growth inhibition, 48 h
Hi! Could you send only the number? It should be in µM, unit omitted.

Recorded results for 8 compounds are shown here.
[
  {
    "Compound": "Nc1ccc(Oc2ccc(C3(c4ccc(Oc5ccc(N)c(O)c5)cc4)C4CC5CC(C4)CC3C5)cc2)cc1O",
    "Unit label": "µM",
    "TGI": 3.18
  },
  {
    "Compound": "CCN(CC)CCCC(C)Nc1ccnc2cc(OC)ccc12 (stereo not given)",
    "Unit label": "µM",
    "TGI": 30.4
  },
  {
    "Compound": "O=c1[nH]c2c(ccc3cnccc32)c2c1CCC2",
    "Unit label": "µM",
    "TGI": 1.62
  },
  {
    "Compound": "C/C(=C/C(=O)N(C)c1ccccc1Cl)O[Si](C(C)C)(C(C)C)C(C)C",
    "Unit label": "µM",
    "TGI": 70.9
  },
  {
    "Compound": "COC(=O)[C@@H](C)C[C@H](Cc1ccccc1)NC(=O)c1nc([C@@H](C[C@H](C(C)C)N(C)C(=O)[C@@H](NC(=O)[C@H]2CC(=O)CCN2C)C(C)C)OC(C)=O)sc1C(C)C",
    "Unit label": "µM",
    "TGI": 1.18
  },
  {
    "Compound": "CC1(C)CCC(c2ccc(Cl)cc2)=C(CN2CCN(c3ccc(C(=O)NS(=O)(=O)c4ccc(N[C@H](CCN5CCOCC5)CSc5ccccc5)c(S(=O)(=O)C(F)(F)F)c4)cc3)CC2)C1",
    "Unit label": "µM",
    "TGI": 3.38
  },
  {
    "Compound": "O=P(c1ccccc1)(c1ccccc1)C1CC=C2CCCCCC2C1 (stereo not given)",
    "Unit label": "µM",
    "TGI": 40.9
  },
  {
    "Compound": "CCn1c(O)c(C(=O)Nc2cccs2)c(=O)n(CC)c1=S",
    "Unit label": "µM",
    "TGI": 43.8
  }
]

Prompt: # return recorded TGI for entry `NC1=Nc2cc(OCCCCN3Cc4ccccc4C3)c(OCC3CC3)cc2C12CCCC2`
Completion: 3.51

Prompt: # return recorded TGI for entry `Cc1ccc(CNc2ccc(Cl)cc2NCc2ccc(C)c(O)c2)cc1O`
Completion: 12.6

Prompt: # return recorded TGI for entry `COc1cccc(O)c1-c1cc(=O)c2c(O)c(OC)c(OC)c(OC)c2o1`
Completion: 68.4
